Assay: self-splicing fitness, log relative to wild type (ln ratio); higher = more splicing; Tetrahymena group I intron in knt gene, E. coli kanamycin selection, DiMSum; sequences stand for … in CUCUCU…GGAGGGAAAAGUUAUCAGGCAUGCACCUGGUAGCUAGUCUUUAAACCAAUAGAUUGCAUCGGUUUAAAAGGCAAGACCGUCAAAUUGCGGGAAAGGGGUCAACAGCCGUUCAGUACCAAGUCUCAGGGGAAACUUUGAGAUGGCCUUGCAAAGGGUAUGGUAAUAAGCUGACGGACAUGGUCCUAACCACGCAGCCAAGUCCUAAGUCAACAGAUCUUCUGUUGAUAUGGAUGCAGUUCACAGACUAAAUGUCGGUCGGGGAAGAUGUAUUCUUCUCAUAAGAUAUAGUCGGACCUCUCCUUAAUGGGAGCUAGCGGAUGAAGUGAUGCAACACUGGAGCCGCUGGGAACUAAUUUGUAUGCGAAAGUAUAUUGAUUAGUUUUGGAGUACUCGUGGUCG;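 further: selection with 25 µg/mL kanamycin versus none on LB agar overnight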
Details: 30 °C
Criterion: self-splicing fitness (ln) meeting or surpassing -1. Met: true (1). Not met: false (0).

CUGCAGCAAUAUUACGUAGC = false (0)
UCCAAGCAAUAUUACGGUCA = true (1)
AAUUAGCAAUAUUACGUACU = true (1)

Check this sequence for self-splicing fitness (ln) at or above -1: UGAAAGCAAUAUUACGUUUC false (0)

Check this sequence for self-splicing fitness (ln) at or above -1: UGGCAGCAAUAUUACGGAUC false (0)

Check this sequence for self-splicing fitness (ln) at or above -1: GAUCAGCAAUAUUACGGGGC false (0)

Check this sequence for self-splicing fitness (ln) at or above -1: CUACAGCAAUAUUACGCCCG true (1)

Check this sequence for self-splicing fitness (ln) at or above -1: UCCGAGCAAUAUUACGGCGU false (0)

Check this sequence for self-splicing fitness (ln) at or above -1: AUGGAGCAAUAUUACGUCCG false (0)

Check this sequence for self-splicing fitness (ln) at or above -1: CAGGAGCAAUAUUACGUCGC false (0)

Check this sequence for self-splicing fitness (ln) at or above -1: UGAAAGCAAUAUUACGACAG true (1)

Check this sequence for self-splicing fitness (ln) at or above -1: AAAAAGCAAUAUUACGUGGG false (0)

Check this sequence for self-splicing fitness (ln) at or above -1: CAAGAGCAAUAUUACGCUAA false (0)

Check this sequence for self-splicing fitness (ln) at or above -1: CCAUAGCAAUAUUACGCAUG false (0)

Check this sequence for self-splicing fitness (ln) at or above -1: UGGAAGCAAUAUUACGACCA true (1)

Check this sequence for self-splicing fitness (ln) at or above -1: GCAUAGCAAUAUUACGCGAC false (0)

Check this sequence for self-splicing fitness (ln) at or above -1: GAUGAGCAAUAUUACGUCAU false (0)

Check this sequence for self-splicing fitness (ln) at or above -1: CUGAAGCAAUAUUACGAACG true (1)

Check this sequence for self-splicing fitness (ln) at or above -1: CCCCAGCAAUAUUACGUGGC false (0)

Check this sequence for self-splicing fitness (ln) at or above -1: CCGUAGCAAUAUUACGUGAC false (0)

Check this sequence for self-splicing fitness (ln) at or above -1: UCUAAGCAAUAUUACGGUUA false (0)

Check this sequence for self-splicing fitness (ln) at or above -1: GGCUAGCAAUAUUACGUCGA false (0)

Check this sequence for self-splicing fitness (ln) at or above -1: GUAGAGCAAUAUUACGUGAU false (0)

Check this sequence for self-splicing fitness (ln) at or above -1: UUCUAGCAAUAUUACGGCGA true (1)

Check this sequence for self-splicing fitness (ln) at or above -1: UAACAGCAAUAUUACGUGUU false (0)

Check this sequence for self-splicing fitness (ln) at or above -1: AUAAAGCAAUAUUACGAAAA false (0)

Check this sequence for self-splicing fitness (ln) at or above -1: UACUAGCAAUAUUACGUGCC false (0)

Check this sequence for self-splicing fitness (ln) at or above -1: GGCUAGCAAUAUUACGUACA false (0)

Origin of the recorded values: the supplement of paper PMC7877785
